These data points were gathered from patent US20230348426A1.

- SYSTEM NAME: human FPR2 (Homo sapiens (Human))
- Sequence (P25090 whole entry): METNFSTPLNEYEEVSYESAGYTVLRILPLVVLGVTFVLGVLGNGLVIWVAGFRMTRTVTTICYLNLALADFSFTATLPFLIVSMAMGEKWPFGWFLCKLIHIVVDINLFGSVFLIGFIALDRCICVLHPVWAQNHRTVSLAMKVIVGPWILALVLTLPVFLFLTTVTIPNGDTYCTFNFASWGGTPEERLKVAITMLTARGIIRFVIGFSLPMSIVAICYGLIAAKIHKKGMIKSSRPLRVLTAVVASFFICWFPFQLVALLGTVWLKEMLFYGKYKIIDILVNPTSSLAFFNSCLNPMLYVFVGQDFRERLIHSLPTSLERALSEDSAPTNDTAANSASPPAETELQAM
- PROTOCOL DESCRIPTION: FPR2 cyclic adenosine monophosphate (cAMP) assay
- CONDITION DETAILS: CHO cells overexpressing human FPR2; forskolin 5 µM; inhibition of cAMP production; read-out: hFPR2 cAMP2 EC50
pEC50: −log10 of the molar value.
OBSERVATION TYPE: pEC50

COc1cc(F)c([C@@H]2CN(c3cc(Cl)cn(C)c3=O)C(=O)[C@H]2NC(=O)c2ccc(Cl)cc2)c(F)c1 [Example 189] = 8.30

I = COc1cc(F)c([C@@H]2CN(c3c(C)ccn([C@H]4COC[C@@H]4O)c3=O)C(=O)[C@H]2NC(=O)c2ccc(Cl)cc2)c(F)c1 [Example 623]
II = CCn1cccc(N2C[C@@H](c3c(F)cc(OC)cc3F)[C@H](NC(=O)c3cccc(OC)c3)C2=O)c1=O [Example 345]
Prompt: Smaller pEC50 value, I vs II ? In your reply, give the label of the chosen option.
Response: II
(II: 7.05, I: 7.94)

P = COCCNc1ccnc(N2C[C@@H](c3c(F)cc(OC)cc3F)[C@H](NC(=O)c3ccc(Cl)cc3)C2=O)c1C(F)(F)F [Example 410]
Q = COc1cc(F)c([C@@H]2CN(c3nccc(N4C[C@@H](C)N(C)[C@@H](C)C4)c3C#N)C(=O)[C@H]2NC(=O)c2ccc(Cl)cc2)c(F)c1 [Example 167]
R = COc1cc(F)c([C@@H]2CN(c3nc(N4CCOCC4=O)ccc3F)C(=O)[C@H]2NC(=O)c2ccc(OC(F)(F)F)cc2)c(F)c1 [Example 58]
S = COc1ccc([C@@H]2CN(c3ccnn(CC(F)F)c3=O)C(=O)[C@H]2NC(=O)c2ccc(OC(F)F)cc2)c(F)c1 [Example 620]
Prompt: Sort entries by pEC50 from minimum to maximum value. # output: labels, in the requested order
Response: P, S, Q, R
(P: 7.93, S: 8.13, Q: 8.37, R: 8.82)

a = COc1cc(F)c([C@@H]2CN(c3cccc(N4CCN(S(C)(=O)=O)CC4)n3)C(=O)[C@H]2NC(=O)c2ccc(OC(F)F)cc2)c(F)c1 [Example 567]
b = COCCn1ccc(C)c(N2C[C@@H](c3c(F)cc(OC)cc3F)[C@H](NC(=O)c3ccc(Cl)cc3)C2=O)c1=O [Example 633]
Prompt: Smaller pEC50 value, a vs b ? In your reply, give the label of the chosen option.
Response: a
(a: 8.02, b: 8.85)

P = CCn1nccc(N2C[C@@H](c3ccc(OC)cc3)[C@H](NC(=O)c3ccc(OC(F)F)cc3)C2=O)c1=O [Example 674]
Q = COc1cc(F)c([C@@H]2CN(c3cccc(C4CCCN(CCO)C4)n3)C(=O)[C@H]2NC(=O)c2ccc(OC(F)F)cc2)c(F)c1 (stereo partly shown) [Example 501]
Prompt: Smaller pEC50 value, P vs Q ? In your reply, give the label of the chosen option.
Response: P
